B1: CLCN6 (parent)
chain: FQSISLRKIQFNFPYFRSDRDKRD

# Variants of: B1
# EXPERIMENT: protein stability index of a GFP-peptide fusion (GPS, HEK-293T) (PSI 1-6); higher = more stable;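 also: lentivirally expressed fusions sorted by FACS into six bins by GFP to DsRed ratio, PSI derived from sequencing read proportions per bin multiplied by bin number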
# MEASUREMENT PARAMETERS: c terminus: a fixed tail appended
// false (0) strictly below 2 in protein stability index; true (1) otherwise

Reference set (2 entries):
Q2V	true (1)
Y15M	false (0)

Does S18N have a reported protein stability index of at least 2? true (1)

Does R20V have a reported protein stability index of at least 2? false (0)

Does K8R have a reported protein stability index of at least 2? false (0)
